REPORTED_METRIC: melting point

Some entries whose results are on file:
>>> measured("O=C1c2ccccc2OCN1CCO[N+](=O)[O-]")
"49 to 51 °C"
>>> measured("CNC(=O)N1C(=O)C(=O)c2cc(F)ccc21")
"230 to 232 °C"

Suppose we examine the compound O=C1c2cc3ccc4c(c3c(-c3ccncc3)c2C[NH+]1[O-])OCO4 (stereo unspecified) ; what melting point value has been reported?
270 to 274 °C

---

melting point values for the compounds below.

Some entries whose results are on file:
>>> measured("O=C1C=C(NC(=O)C(=O)c2cn(Cc3ccc(Cl)cc3)c3ccccc23)CO1")
"253 to 255 °C"
>>> measured("O=C(N[C@@H](Cc1c[nH]cn1)C(=O)OCCc1cccs1)C(Cc1cccc2ccccc12)Cc1cccc2ccccc12")
"203 to 206 °C"
>>> measured("O=C1N(Cc2cc(-c3ccc(Cl)cc3)oc2C(F)(F)F)c2ccccc2C12COc1cc3c(cc12)OCO3 (stereo not given)")
"114 to 116 °C"
>>> measured("COc1cc(CCCn2cncn2)ccc1OCc1coc(/C=C/c2ccccc2)n1")
"113 to 114 °C"

Now examine the next entry.
Suppose we examine the compound "Cc1cc(-c2ccncc2)n2ncc(C(=O)c3ccccc3)c2n1" ; what melting point value has been reported?
209 to 210 °C

---

REPORTED_METRIC: melting point

Some entries whose results are on file:
>>> measured("CCOc1cc2c(c3c1[nH]c1ccc(O)cc13)C(=O)N(CCN(C)C)C2=O")
"260 to 261 °C"
>>> measured("COC(=O)c1ccc(CC(C)NCC(O)c2ccc(O)c(CO)c2)cc1C (stereo not given)")
"82 to 85 °C"
>>> measured("CC(C)(C)OC(=O)Nc1ncc(-c2ccc(C#Cc3ccccc3)cc2)n1C(=O)OC(C)(C)C")
"131 to 132 °C"

Suppose we examine the molecule "CNCCOC(=O)[C@@H](C)c1ccc2cc(OC)ccc2c1" ; what melting point value has been reported?
64 to 68 °C

Moving on to the next molecule: CC(Oc1ccc(C(C)(C)C)cc1C(C)(C)C)C(=O)O (stereo not given)
106 to 111 °C

Moving on to the next molecule: "CCCCn1c(=O)n(C)c(=O)c2[nH]ncc21"
160 to 162 °C

Moving on to the next molecule: "CCCNC(=O)CCCCCn1c(COCC)nc2c(N)nc3ccccc3c21"
161 to 162 °C

Moving on to the next molecule: "CC(=O)NCCCC(=O)c1ccc(Cl)cc1CCC(=O)OCC(N)=O"
114 to 116 °C

Moving on to the next molecule: CC(C)(C)C(NC(=O)Cc1ccc(Cl)cc1)NC(=NC#N)Nc1cccnc1Cl (stereo not given)
174 to 175 °C

Moving on to the next molecule: C[C@@H](c1ccc(F)cc1)N1Cc2cncn2C(C)(c2ccc(C#N)cc2)C1=O (stereo not given in full)
78 to 82 °C

---

melting point values for the compounds below.

Some entries whose results are on file:
>>> measured("N#CSc1ccc(N)c([N+](=O)[O-])c1")
"110 to 112 °C"
>>> measured("CCOC(=O)C1=CC(C)(C(=O)N(C)C)SC1N (stereo not given)")
"122 to 124 °C"

Suppose we examine the compound "CCC1(C)CCN(c2ccc([N+](=O)[O-])cc2C(=O)c2ccc(Cl)cc2)CC1" ; what melting point value has been reported?
105 °C

Moving on to the next compound: "O=S(=O)(Nc1cccc(CCOCc2ccc(-c3cccc(Cl)c3)cc2)c1)C(F)(F)F"
105 to 107 °C

Moving on to the next compound: "O=c1cc(-c2ccc(O)cc2[N+](=O)[O-])oc2ccccc12"
277 to 279 °C

Moving on to the next compound: "Clc1c2ccccc2nc2cc(-c3ccccc3)ccc12"
104 to 108 °C

Moving on to the next compound: "CCOC(=O)C(=C(NC)NCc1ccc(Cl)nc1)[N+](=O)[O-]"
231 to 233 °C

Numbers sourced from a melting point compilation (Tetko et al.; mined from patent text by program, amines drawn as free bases though some values may be those of a salt).
